System: T-47D spheroids with HUVEC/MSC, viability
Test: Anticancer human tumor T-47D cell line growth inhibition [PI3K];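 further: spheroids exposed to agents for seven days before reading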
Conditions: compound 1 µM; stronger effect = lower value
Recorded viability, T/C values for a group of molecules are listed next.
MEASUREMENT_NAME: viability, T/C

                                   molecule  measurement_name             readout_value
0  CC(C)NCC(C(=O)N1CCN(c2ncnc3c2C(C)CC3O)CC1)c1ccc(Cl)cc1 (stereo not given)    viability, T/C  79.4% [middle of 4 runs]
1  Cn1ncc(Cl)c1-c1cc(C(=O)NC(CN)Cc2cccc(F)c2)sc1Cl (stereo not given)    viability, T/C  81.8% [middle of 4 runs]
2  CCN1CCN(Cc2ccc(Nc3ncc(F)c(-c4cc(F)c5nc(C)n(C(C)C)c5c4)n3)nc2)CC1    viability, T/C  91.2% [middle of 4 runs]
3  COc1c(OCCCN2CCOCC2)ccc2c3n(c(=NC(=O)c4cnc(N)nc4)nc12)CCN3    viability, T/C  7.09% [middle of 8 runs]
4  CC1(C)CCC(Nc2ncc(C(F)(F)F)c(-c3c[nH]c4c(P(C)(C)=O)c(C#N)ccc34)n2)CN1 (stereo not given)    viability, T/C  79.7% [middle of 4 runs]

---

Test system: T-47D spheroids with HUVEC/MSC, viability
Experiment: Anticancer human tumor T-47D cell line growth inhibition [PI3K];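 further: spheroids exposed to agents for seven days before reading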
Conditions: curve of first compound; second compound 0.316 µM
pIC50: −log10 of the molar value.

COMPOUND	pIC50
Cn1cnc2c(F)c(Nc3ccc(Br)cc3Cl)c(C(=O)NOCCO)cc21 + COc1c(OCCCN2CCOCC2)ccc2c3n(c(=NC(=O)c4cnc(N)nc4)nc12)CCN3	> 8.02
C=CC(=O)N1CCN(c2nc(=O)n(-c3c(C)ccnc3C(C)C)c3nc(-c4c(O)cccc4F)c(F)cc23)C(C)C1 (stereo not drawn) + CC(Nc1ncnc2nc[nH]c12)c1cc2cccc(Cl)c2c(=O)n1-c1ccccc1	< 5.00
CCCS(=O)(=O)Nc1ccc(F)c(C(=O)c2c[nH]c3ncc(-c4ccc(Cl)cc4)cc23)c1F + Cc1nc(NC(=O)N2CCCC2C(N)=O)sc1-c1ccnc(C(C)(C)C(F)(F)F)c1	5.12

---

Entries and their measured viability, T/C follow.
System: T-47D spheroids with HUVEC/MSC, viability
Test: Anticancer human tumor T-47D cell line growth inhibition [PI3K];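 further: spheroids exposed to agents for seven days before reading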;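 on viability, T/C: percent of DMSO vehicle control luminescence so 100% = untreated growth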
Settings: second compound 0.01 µM; first compound 10 µM; stronger effect = lower value
MEASUREMENT_NAME: viability, T/C (%)

COMPOUND	READOUT_VALUE
CCCS(=O)(=O)Nc1ccc(F)c(C(=O)c2c[nH]c3ncc(-c4ccc(Cl)cc4)cc23)c1F + CC(Nc1ccc2c(c1)OCCn1cc(N3C(=O)OCC3C(F)F)nc1-2)C(N)=O	47
CC1(C)CCC(Nc2ncc(C(F)(F)F)c(-c3c[nH]c4c(P(C)(C)=O)c(C#N)ccc34)n2)CN1 (stereo not drawn) + CC(Nc1ccc2c(c1)OCCn1cc(N3C(=O)OCC3C(F)F)nc1-2)C(N)=O	47.6
CC(Cn1ccc(-c2ccc(C#N)c(Cl)c2)n1)NC(=O)c1cc(C(C)O)[nH]n1 (stereo not drawn) + CC(Nc1ccc2c(c1)OCCn1cc(N3C(=O)OCC3C(F)F)nc1-2)C(N)=O	63.2
CC1(C)CCC(CN2CCN(c3ccc(C(=O)NS(=O)(=O)c4ccc(NCC5CCOCC5)c([N+](=O)[O-])c4)c(Oc4cnc5[nH]ccc5c4)c3)CC2)=C(c2ccc(Cl)cc2)C1 + CC(Nc1ccc2c(c1)OCCn1cc(N3C(=O)OCC3C(F)F)nc1-2)C(N)=O	69.7
CNC(=O)c1ccc(N2C(=S)N(c3ccc(C#N)c(C(F)(F)F)c3)C(=O)C2(C)C)cc1F + COc1c(OCCCN2CCOCC2)ccc2c3n(c(=NC(=O)c4cnc(N)nc4)nc12)CCN3	91.2
C[C@@H](NC(=O)c1ncnc(N)c1Cl)c1ncc(C(=O)Nc2cc(C(F)(F)F)c(Cl)cn2)s1 + CC(Nc1ccc2c(c1)OCCn1cc(N3C(=O)OCC3C(F)F)nc1-2)C(N)=O	101
CC1(C)CCC(CN2CCN(c3ccc(C(=O)NS(=O)(=O)c4ccc(NCC5CCOCC5)c([N+](=O)[O-])c4)c(Oc4cnc5[nH]ccc5c4)c3)CC2)=C(c2ccc(Cl)cc2)C1 + COc1c(OCCCN2CCOCC2)ccc2c3n(c(=NC(=O)c4cnc(N)nc4)nc12)CCN3	88.1
C=CC(=O)N1CCN(c2nc(=O)n(-c3c(C)ccnc3C(C)C)c3nc(-c4c(O)cccc4F)c(F)cc23)C(C)C1 (stereo not drawn) + CC(Nc1ccc2c(c1)OCCn1cc(N3C(=O)OCC3C(F)F)nc1-2)C(N)=O	92.1

---

Overview of recorded viability, T/C for various compounds
Tested on: T-47D spheroids with HUVEC/MSC, viability
Assay: Anticancer human tumor T-47D cell line growth inhibition [PI3K];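 further: spheroids exposed to agents for seven days before reading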;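 on viability, T/C: percent of DMSO vehicle control luminescence so 100% = untreated growth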
Conditions: second compound 0.316 µM; first compound 0.0316 µM; stronger effect = lower value

COMPOUND	viability, T/C (%)
Cn1ncnc1[C@H]1c2n[nH]c(=O)c3cc(F)cc(c23)N[C@@H]1c1ccc(F)cc1 + CC(Nc1ccc2c(c1)OCCn1cc(N3C(=O)OCC3C(F)F)nc1-2)C(N)=O	62.3
CC(Cn1ccc(-c2ccc(C#N)c(Cl)c2)n1)NC(=O)c1cc(C(C)O)[nH]n1 (stereo not drawn) + COc1c(OCCCN2CCOCC2)ccc2c3n(c(=NC(=O)c4cnc(N)nc4)nc12)CCN3	14.8
CC1(C)CCC(Nc2ncc(C(F)(F)F)c(-c3c[nH]c4c(P(C)(C)=O)c(C#N)ccc34)n2)CN1 (stereo not drawn) + Cc1nc(NC(=O)N2CCCC2C(N)=O)sc1-c1ccnc(C(C)(C)C(F)(F)F)c1	67
CC(C)n1nc(-c2ccc3oc(N)nc3c2)c2c(N)ncnc21 + CC(Nc1ncnc2nc[nH]c12)c1cc2cccc(Cl)c2c(=O)n1-c1ccccc1	67.6
CCCS(=O)(=O)Nc1ccc(F)c(C(=O)c2c[nH]c3ncc(-c4ccc(Cl)cc4)cc23)c1F + Cc1nc(NC(=O)N2CCCC2C(N)=O)sc1-c1ccnc(C(C)(C)C(F)(F)F)c1	99.8
CNC(=O)c1ccc(N2C(=S)N(c3ccc(C#N)c(C(F)(F)F)c3)C(=O)C2(C)C)cc1F + Cc1nc(NC(=O)N2CCCC2C(N)=O)sc1-c1ccnc(C(C)(C)C(F)(F)F)c1	91.8
C=CC(=O)N1CCN(c2nc(=O)n(-c3c(C)ccnc3C(C)C)c3nc(-c4c(O)cccc4F)c(F)cc23)C(C)C1 (stereo not drawn) + COc1c(OCCCN2CCOCC2)ccc2c3n(c(=NC(=O)c4cnc(N)nc4)nc12)CCN3	21.3
Cn1ncc(Cl)c1-c1cc(C(=O)NC(CN)Cc2cccc(F)c2)sc1Cl (stereo not drawn) + CC(Nc1ccc2c(c1)OCCn1cc(N3C(=O)OCC3C(F)F)nc1-2)C(N)=O	71.4

---

Tested on: T-47D spheroids with HUVEC/MSC, viability
Assay: Anticancer human tumor T-47D cell line growth inhibition [PI3K];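 further: spheroids exposed to agents for seven days before reading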;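 on viability, T/C: percent of DMSO vehicle control luminescence so 100% = untreated growth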
Settings: second compound 0.00316 µM; first compound 0.1 µM; stronger effect = lower value
The compounds listed here are annotated with their viability, T/C.
MEASUREMENT_NAME: viability, T/C (%)

COMPOUND	MEASUREMENT_NAME	READOUT_VALUE
CNC(=O)c1ccc(N2C(=S)N(c3ccc(C#N)c(C(F)(F)F)c3)C(=O)C2(C)C)cc1F + COc1c(OCCCN2CCOCC2)ccc2c3n(c(=NC(=O)c4cnc(N)nc4)nc12)CCN3	viability, T/C	84.3
Cn1ncnc1[C@H]1c2n[nH]c(=O)c3cc(F)cc(c23)N[C@@H]1c1ccc(F)cc1 + COc1c(OCCCN2CCOCC2)ccc2c3n(c(=NC(=O)c4cnc(N)nc4)nc12)CCN3	viability, T/C	101
Cn1ncc(Cl)c1-c1cc(C(=O)NC(CN)Cc2cccc(F)c2)sc1Cl (centres undefined) + COc1c(OCCCN2CCOCC2)ccc2c3n(c(=NC(=O)c4cnc(N)nc4)nc12)CCN3	viability, T/C	102
Cn1nccc1Nc1nccc(-c2ccn(C(CO)c3ccc(Cl)c(F)c3)c(=O)c2)n1 (centres undefined) + CC(Nc1ccc2c(c1)OCCn1cc(N3C(=O)OCC3C(F)F)nc1-2)C(N)=O	viability, T/C	97.4

---

The reader will find reported viability, T/C values listed item by item below.
Test system: T-47D spheroids with HUVEC/MSC, viability
Experiment: Anticancer human tumor T-47D cell line growth inhibition [PI3K];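 further: spheroids exposed to agents for seven days before reading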;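 on viability, T/C: percent of DMSO vehicle control luminescence so 100% = untreated growth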
Conditions: second compound 1 µM; first compound 0.0949 µM; stronger effect = lower value
MEASUREMENT_NAME: viability, T/C (%)

>>> print(df.to_string())
                                   molecule  measurement_name  readout_value
0  Cn1cnc2c(F)c(Nc3ccc(Br)cc3Cl)c(C(=O)NOCCO)cc21 + Cc1nc(NC(=O)N2CCCC2C(N)=O)sc1-c1ccnc(C(C)(C)C(F)(F)F)c1    viability, T/C           96.2
1  Cn1cnc2c(F)c(Nc3ccc(Br)cc3Cl)c(C(=O)NOCCO)cc21 + CC(Nc1ccc2c(c1)OCCn1cc(N3C(=O)OCC3C(F)F)nc1-2)C(N)=O    viability, T/C           59.2
2  Cn1cnc2c(F)c(Nc3ccc(Br)cc3Cl)c(C(=O)NOCCO)cc21 + CC(Nc1ncnc2nc[nH]c12)c1cc2cccc(Cl)c2c(=O)n1-c1ccccc1    viability, T/C           86.1
3  Cn1cnc2c(F)c(Nc3ccc(Br)cc3Cl)c(C(=O)NOCCO)cc21 + COc1c(OCCCN2CCOCC2)ccc2c3n(c(=NC(=O)c4cnc(N)nc4)nc12)CCN3    viability, T/C           7.54

Just for reference, PubChem BioAssay AID1963959 is where these values come from.
